# ASSAY OVERVIEW: Single dose toxicity in mice
# Type: in vivo
# MEASUREMENT PARAMETERS: mouse, in vivo, 2000 mg/kg; oral, single dose, male mice, 6 weeks

{"RECORD SMILES": "Cc1ccc(COC(=O)c2ccc(-c3ccc(OC(=O)c4ccc(CNC(=N)N)cc4)cc3)cc2)cc1", "LD50": "> 2000 mg/kg"}

---

# Test system: E. coli
# ASSAY OVERVIEW: Effects of GMCHA derivatives on E. coli growth
# Format: cell-based
# MEASUREMENT PARAMETERS: growth, Table 2

{"COMPOUND": "CCc1ccc(OC(=O)C2CCC(CNC(=N)N)CC2)cc1 (centres unmarked)", "CMP": "=", "E. coli IC91": 167}
{"COMPOUND": "N=C(N)NCC1CCC(C(=O)Oc2ccc(-c3ccccc3)cc2)CC1 (centres unmarked)", "CMP": "=", "E. coli IC91": 26}
{"COMPOUND": "N=C(N)NCC1CCC(C(=O)Oc2ccccc2)CC1 (centres unmarked)", "CMP": ">", "E. coli IC91": 200}
{"COMPOUND": "Cc1ccc(OC(=O)C2CCC(CNC(=N)N)CC2)cc1 (centres unmarked)", "CMP": ">", "E. coli IC91": 200}
{"COMPOUND": "CC(C)(C)c1ccc(OC(=O)C2CCC(CNC(=N)N)CC2)cc1 (centres unmarked)", "CMP": "=", "E. coli IC91": 45}
